target: Pro-neuregulin-1, membrane-bound isoform (Homo sapiens) (UniProt Q02297); test: NRG1 binders on small-molecule microarrays, primary screen, psychiatric disease protein project, biochemical, small-molecule microarray, fluorescence 635/667 (AID 1075); settings: NRG1 binding, 635 nm fluorescence, higher = more signal;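 note: score combines 667 nm spot fluorescence with signal to noise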
Sequence (Q02297 whole entry, looked up, canonical isoform): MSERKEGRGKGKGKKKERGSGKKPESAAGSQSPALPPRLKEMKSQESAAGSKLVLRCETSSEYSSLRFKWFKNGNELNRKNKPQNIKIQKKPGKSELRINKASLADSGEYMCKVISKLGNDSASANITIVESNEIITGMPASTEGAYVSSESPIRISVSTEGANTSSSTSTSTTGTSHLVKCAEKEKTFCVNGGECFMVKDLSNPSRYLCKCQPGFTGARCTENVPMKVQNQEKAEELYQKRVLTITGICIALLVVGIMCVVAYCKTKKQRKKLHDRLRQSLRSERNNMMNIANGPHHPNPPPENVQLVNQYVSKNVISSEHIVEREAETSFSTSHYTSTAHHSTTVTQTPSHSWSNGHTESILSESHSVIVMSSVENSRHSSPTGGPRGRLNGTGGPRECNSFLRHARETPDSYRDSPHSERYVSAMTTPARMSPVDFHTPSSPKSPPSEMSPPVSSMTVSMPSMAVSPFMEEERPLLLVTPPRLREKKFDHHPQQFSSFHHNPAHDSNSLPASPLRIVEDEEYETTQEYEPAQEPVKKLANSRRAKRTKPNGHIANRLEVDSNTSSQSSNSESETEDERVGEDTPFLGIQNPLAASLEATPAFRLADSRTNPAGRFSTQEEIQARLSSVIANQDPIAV
Consider the following compounds and their measured composite z-score readings.

compound	composite z-score
CCCCO[C@H]1C[C@H]2C(I)=C[C@@H]1C(=O)[C@]21CO1	-0.149
O=C1NC(=O)C2C1C=CC(C(O)c1cccc3ccccc13)N2Nc1ccc(Cl)cc1Cl (configuration not stated)	1.53
C=C(/C(=C/C[C@H](OC(C)=O)c1ccccc1OCCO)c1cc(C(=O)OC)ccc1OC)C(C)C	0.0648
Cc1ccc(S[C@]2(C(=O)NCC(F)(F)F)CC(=O)N(C3CCCCC3)[C@@H]2c2ccc(CO)cc2I)cc1	0.405
C=CCC(OC(C)=O)[C@@H]1[C@@H](N(Cc2cccc3ccccc23)C(=O)c2cccc3ccccc23)c2cc(OCCCO)ccc2N1C(=O)c1ccc(-c2ccccc2)cc1 (some centres not stated)	0.523
CN1C(=O)C2C=CC(C(O)c3cccc4ccccc34)N(N3CCCCC3)C2C1=O (configuration not stated)	1.67

Now examine the next entry.
Tell us which composite z-score value is on record for CC(=O)c1ccc(C(O)C2C=CC3C(=O)N(c4ccccc4)C(=O)C3N2Nc2ccc(C#N)cc2)cc1 (configuration not stated)
1.5

====

Consider the following compounds and their measured composite z-score readings.
biological target: Calmodulin-1 (Homo sapiens); assay: CALM1 binders on microarrays, EGTA buffer, profiling panel, biochemical, small-molecule microarray, Cy5-labelled CALM1 (AID 1111); settings: Cy5-CALM1 binding fluorescence, higher = more signal;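 note: labelled calmodulin applied in Tris saline Tween buffer holding calcium plus EGTA and DTT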
Number, no unit, nothing else.

Example results:
> print(dat)
                                   compound      quantity.name  data.value
1  Cc1cc(C)c(C(O)C2C=CC3C(=O)NC(=O)C3N2Nc2ccc(Cl)cc2Cl)c(C)c1 (configuration not stated)  composite z-score        2.18
2  CCCCN1CC=CC23O[C@@H]4/C=C\CCC(C)OC(=O)C4[C@H]2C(=O)N(C(CO)C(C)C)[C@@H]3C1=O (some centres not stated)  composite z-score      -0.708
3  O=C1OCCC/C=C\[C@H]2OC34C=CCN(CCN5CCOCC5)C(=O)[C@H]3N(CCCCCCO)C(=O)[C@@H]4C12 (some centres not stated)  composite z-score      -0.523

Tell us which composite z-score value is on record for "CC(C)(C)OC(=O)CC[C@]1(C(=O)NCc2ccccc2)N=C(c2ccc(OCCCO)cc2)O[C@H]1c1ccccc1CN=[N+]=[N-]"
1.27

Tell us which composite z-score value is on record for "COc1ccc(-c2cc3c(c(CCc4ccccc4)n2)[Si](C(C)C)(C(C)C)OC3)cn1"
-0.113

Tell us which composite z-score value is on record for "C[N+](C)(C)CCCCCCNC(=O)[C@H]1C[C@H]2C(=O)N[C@@H](Cc3ccccc3)C(=O)N2[C@H]1c1ccc(O)cc1"
-0.667

Tell us which composite z-score value is on record for N#Cc1ccc(C(O)C2C=CC3C(=O)N(c4ccccc4)C(=O)C3N2Nc2ccccc2)cc1 (configuration not stated)
1.03

====

target: Homeobox protein Hox-A13 (Mus musculus); experiment: inhibitors of HoxA13-DNA binding, primary screen, biochemical, fluorescence polarization, labeled oligonucleotide (AID 1185); details: 15 min, higher = more signal, called active from +8 up or from −8 down
Tag: Criterion met if measured z-score is not below -4, Criterion not met if it is.

compound	group
CO[C@]12C=C(Br)[C@@H](C[C@@H]1c1cccc(C)c1)[C@@]1(CO1)C2=O	Criterion met
CCOC(=O)C[C@H]1[C@H](OC(=O)c2cc3ccccc3oc2=O)[C@@H](NC(=O)c2ccc(-c3ccccc3)cc2)c2cc(OCCCO)ccc2N1C(=O)c1ccc2ccccc2n1	Criterion met
C[C@@H]1ON(c2ccc(C(=O)OC(C)(C)C)cc2)[C@H](c2ccc(O)cc2)[C@H]1C(=O)N1C(=O)OC[C@H]1Cc1ccccc1	Criterion met
O=C1O[C@H](c2ccccc2)[C@H](c2ccccc2)N2[C@H]1[C@@H](C(=O)N1CCN(c3ncccn3)CC1)[C@]1(C(=O)Nc3ccc(C#CC4(O)CCCCCC4)cc31)[C@H]2c1ccc(OCCO)cc1	Criterion met
CCOc1cc(C(O)C2C=CC3C(=O)N(c4ccccc4)C(=O)C3N2Nc2ccc(C#N)cc2)ccc1O (stereo unspecified)	Criterion not met

In plain terms: is recorded z-score at least -4 for "COC(=O)Cn1c(C(=O)N(C)C)cc2c1C[C@H]1CN(C(=O)c3ccccc3)[C@@](Cc3ccc(F)cc3)(C(=O)OC)[C@@H]21" ?
Criterion not met

In plain terms: is recorded z-score at least -4 for O=C1NC(=O)C2C1C=CC(C(O)c1c(F)cccc1Cl)N2Nc1ccc(Cl)cc1Cl (stereo unspecified) ?
Criterion not met

In plain terms: is recorded z-score at least -4 for "COC(=O)[C@@]1(Cc2ccccc2)[C@H]2c3cc(C(=O)N(C)C)n(CCN4CNCC4=O)c3C[C@H]2CN1C(=O)c1ccccc1" ?
Criterion met

In plain terms: is recorded z-score at least -4 for "O=C1N(Cc2ccccc2)c2ccccc2[C@@H]2OC(c3ccc(OCCCO)cc3)=N[C@]12Cc1ccccc1" ?
Criterion met

In plain terms: is recorded z-score at least -4 for CN1C(=O)C2C=CC(C(O)c3ccccn3)N(N(c3ccccc3)c3ccccc3)C2C1=O (stereo unspecified) ?
Criterion not met

In plain terms: is recorded z-score at least -4 for "COCCCNC(=O)[C@]1(CCS(=O)(=O)c2ccccc2)N=C(c2ccc(OCCCO)cc2)O[C@@H]1c1ccccc1CN=[N+]=[N-]" ?
Criterion met

====

Consider the following compounds and their measured composite z-score readings.
system: XIP peptide (Xip251-270); assay: small-molecule binders of XIP peptide, primary screen, biochemical, small-molecule microarray, fluorescence 635/667 nm, 0.5 µg/mL protein (AID 1183); conditions: small-molecule microarray binding, fluorescence 635 nm; higher = more signal
Number, no unit, nothing else.

Example results:
> print(dat)
                                   compound      quantity.name  data.value
1  COC(=O)[C@@]1(Cc2ccccc2)[C@@H]2C(=CC(=O)[C@H]2CC(=O)C(=O)N(C)C)CN1C(=O)c1ccccc1  composite z-score       0.345
2  COC(=O)c1c2oc(c1C(=O)OC)C(=O)N(C)Cc1cn(nn1)C[C@H](Cc1ccccc1)NC(=O)N[C@H](CO)CC2  composite z-score      -0.374
3  O=C1OCCC=C[C@H]2OC34C=CCN(Cn5nnc6ccccc65)C(=O)[C@H]3N(CCCCCCO)C(=O)[C@@H]4C12 (some centres undefined)  composite z-score      -0.948

Now examine the next entry.
Tell us which composite z-score value is on record for "[N-]=[N+]=Nc1ccccc1[C@H]1OC(c2ccc(OCCCO)cc2)=N[C@@]1(Cc1ccccc1)C(=O)N1CCCCC1"
0.664

====

assay: cell viability in Huh7 cells, primary screen, cytotoxicity control for HCV replication inhibitor project, CellTiter-Glo luminescence, basal, 48 h (AID 1143); details: Huh7 HCV replicon, higher = more signal, called active from +8 up or from −8 down;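 note: Huh7 hepatoma cells carrying a hepatitis C replication reporter with no stimulus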
Tag: rule met if measured z-score is not below -0.6, rule not met if it is.

The following molecules have reported results that may help.
molecule	group
COc1ccc([Si](C)(C)[C@@H]2[C@@H](CC(=O)N3Cc4ccccc4C[C@H]3CO)O[C@]3(C(=O)N(C)c4ccccc43)[C@H]2C)cc1	rule not met
O=C1C=C(c2ccccc2)C(=O)c2ccc([C@H]3Oc4ccccc4S(=O)(=O)N4CCC[C@@H]34)cc21	rule not met
O=C1NC(=O)C2C1C=CC(C(O)c1c(F)cccc1Cl)N2Nc1ccc(Cl)cc1Cl (stereo not given)	rule not met
Cc1cc(C)c(C(O)C2C=CC3C(=O)N(c4ccccc4)C(=O)C3N2Nc2ccc(C(C)C)cc2)c(C)c1 (stereo not given)	rule met
O=C1OCC=C[C@H]2OC34C=CCN(Cn5nnc6ccccc65)C(=O)[C@H]3N(CCCO)C(=O)[C@@H]4[C@@H]12 (stereo not given in full)	rule not met
COCCOC(=O)N1C(=O)[C@@]2(c3cc(C#CCCO)ccc31)[C@H](C(=O)Nc1nc3ccccc3s1)[C@H]1C(=O)O[C@H](c3ccccc3)[C@H](c3ccccc3)N1[C@@H]2c1ccccc1OCCO	rule not met
COc1cc2c(cc1O)C(C)N(Cc1ccc([N+](=O)[O-])o1)CC2 (stereo not given)	rule met
CC1CC/C=C\[C@H]2OC34C=CCN(c5ccc(Cl)cc5)C(=O)[C@H]3N(CCCCCO)C(=O)[C@]4(C)C2C(=O)O1 (stereo not given in full)	rule met
C[N+](C)(C)CCCCCCNC(=O)[C@H]1C[C@H]2C(=O)N[C@@H](Cc3ccccc3)C(=O)N2[C@H]1c1ccc(O)cc1	rule met
O=c1n(-c2ccccc2)c(=O)n2n1CC(COc1ccccc1)=C([C@H](O)CCc1ccccc1)[C@@H]2CO	rule not met

In plain terms: is recorded z-score at least -0.6 for OCC1CC(c2ccccc2)=NO1 (stereo not given) ?
rule met

In plain terms: is recorded z-score at least -0.6 for "COCCCNC(=O)[C@]1(CCS(=O)(=O)c2ccccc2)N=C(c2ccc(OCCCO)cc2)O[C@@H]1c1ccccc1CN=[N+]=[N-]" ?
rule not met

In plain terms: is recorded z-score at least -0.6 for C=CCC(OC(C)=O)[C@@H]1[C@@H](N(Cc2cccc3ccccc23)C(=O)c2cccc3ccccc23)c2cc(OCCCO)ccc2N1C(=O)c1ccc(-c2ccccc2)cc1 (stereo not given in full) ?
rule not met

In plain terms: is recorded z-score at least -0.6 for "CC(C)[Si](C#CCCCC#N)(O[C@H](c1ccccc1)c1cn([C@H](CO)Cc2ccccc2)nn1)C(C)C" ?
rule met

In plain terms: is recorded z-score at least -0.6 for "O=C1O[C@H](c2ccccc2)[C@H](c2ccccc2)N2[C@H]1[C@@H](C(=O)Nc1nc3ccccc3s1)[C@]1(C(=O)Nc3ccc(C#CC4(O)CCCCCC4)cc31)[C@H]2c1ccccc1OCCO" ?
rule not met

In plain terms: is recorded z-score at least -0.6 for "C=C(C)c1cc2c(c(CCCCCC)n1)[Si](C(C)C)(C(C)C)OC2" ?
rule met

In plain terms: is recorded z-score at least -0.6 for "COC(=O)c1cn(C[C@@H](Cc2ccccc2)NC(=O)N[C@H](CO)CCc2oc(C(C)=O)c(C(=O)OC)c2C(=O)OC)nn1" ?
rule met

In plain terms: is recorded z-score at least -0.6 for "C=CC[C@]1(C(=O)NCCN2CCOCC2)N=C(c2ccc(OCCCO)cc2)O[C@H]1c1ccccc1CN=[N+]=[N-]" ?
rule not met

In plain terms: is recorded z-score at least -0.6 for "C=C(C(=O)CC[C@@H](OC(C)=O)c1ccc(CO)o1)C(C)C" ?
rule met

In plain terms: is recorded z-score at least -0.6 for "COc1ccc([Si](C)(C)[C@@H]2[C@@H](CC(=O)N(CCO)Cc3ccccc3)O[C@]3(C(=O)N(Cc4cccc(N5C(=O)c6cccc7cccc5c67)c4)c4ccccc43)[C@H]2C)cc1" ?
rule not met
